Values compiled from patent US11149067B2.

target.desc: human neutrophil elastase (Homo sapiens (Human), UniProt P08246)
Sequence (P08246 30-267): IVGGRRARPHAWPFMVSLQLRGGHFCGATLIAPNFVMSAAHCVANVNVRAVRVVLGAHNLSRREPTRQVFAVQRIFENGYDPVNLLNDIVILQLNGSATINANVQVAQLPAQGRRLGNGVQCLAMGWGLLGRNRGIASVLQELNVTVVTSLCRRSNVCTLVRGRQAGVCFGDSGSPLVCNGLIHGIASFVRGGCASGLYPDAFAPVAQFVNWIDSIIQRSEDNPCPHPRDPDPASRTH
test.protocol: Chromogenic enzyme activity assay, elastase
Assay type: biochemical
assay.conditions: human neutrophil elastase, Table 2
The entries below come with measured Ki values attached.

CC(C)C[C@H]1C(=O)N(C)[C@@H](Cc2ccccc2)C(=O)N[C@@H](C(C)C)C(=O)O[C@H](c2ccccc2)[C@H](NC(=O)[C@H](C)NC(=O)[C@H](C)NC(=O)OCc2ccccc2)C(=O)N[C@@H](C(C)C)C(=O)N[C@H]2CC[C@@H](O)N1C2=O : 210 nM
CC(C)[C@@H]1NC(=O)[C@@H](NC(=O)[C@H](C)NC(=O)[C@H](C)NC(=O)OCc2ccccc2)[C@@H](C)OC(=O)[C@H](C(C)C)NC(=O)[C@H](Cc2ccccc2)N(C)C(=O)[C@H](Cc2ccccc2)N2C(=O)[C@H](CC[C@H]2O)NC1=O : 8000 nM
CC(C)C[C@H]1C(=O)N(C)[C@@H](Cc2ccccc2)C(=O)N[C@@H](Cc2ccccc2)C(=O)O[C@H](C)[C@H](NC(=O)[C@H](C)NC(=O)[C@H](C)NC(=O)OCc2ccccc2)C(=O)N[C@@H](C(C)C)C(=O)N[C@H]2CC[C@@H](O)N1C2=O : 320 nM

Query Ki for CC(C)C[C@H]1C(=O)N(C)[C@@H](Cc2ccccc2)C(=O)N[C@@H](C(C)C)C(=O)O[C@H](C)[C@H](NC(=O)[C@H](Cc2ccccc2)NC(=O)[C@H](C)NC(=O)OCc2ccccc2)C(=O)N[C@@H](C(C)C)C(=O)N[C@H]2CC[C@@H](O)N1C2=O
330 nM

----------
target.desc: human HTRA1 (Homo sapiens (Human), UniProt Q92743)
Sequence (Q92743 158-480): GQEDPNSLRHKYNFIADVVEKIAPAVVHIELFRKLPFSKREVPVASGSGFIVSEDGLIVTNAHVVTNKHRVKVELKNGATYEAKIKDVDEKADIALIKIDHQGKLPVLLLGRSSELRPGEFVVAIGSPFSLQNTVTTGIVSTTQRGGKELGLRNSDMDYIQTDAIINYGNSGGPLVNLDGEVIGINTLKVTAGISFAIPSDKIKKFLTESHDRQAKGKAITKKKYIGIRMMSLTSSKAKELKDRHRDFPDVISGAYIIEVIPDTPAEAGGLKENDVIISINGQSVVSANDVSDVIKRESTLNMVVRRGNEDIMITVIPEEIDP
test.protocol: Chromogenic enzyme activity assay, HTRA1
metric: HTRA1 inhibition, in words

CC(C)C[C@H]1C(=O)N(C)[C@@H](Cc2ccccc2)C(=O)N[C@@H](C(C)C)C(=O)O[C@H](C)[C@H](NC(=O)[C@H](C)NC(=O)[C@H](C)NC(=O)OCc2ccccc2)C(=O)N[C@@H](C(C)C)C(=O)N[C@H]2CC[C@@H](O)N1C2=O : inhibited
CC(C)[C@@H]1NC(=O)[C@@H](NC(=O)[C@H](C)NC(=O)[C@H](C)NC(=O)OCc2ccccc2)[C@@H](C)OC(=O)[C@H](C(C)C)NC(=O)[C@H](Cc2ccccc2)N(C)C(=O)[C@H](Cc2ccccc2)N2C(=O)[C@H](CC[C@H]2O)NC1=O : inhibited

----------
target.desc: UniProtKB P83110
Sequence (P83110 111-436): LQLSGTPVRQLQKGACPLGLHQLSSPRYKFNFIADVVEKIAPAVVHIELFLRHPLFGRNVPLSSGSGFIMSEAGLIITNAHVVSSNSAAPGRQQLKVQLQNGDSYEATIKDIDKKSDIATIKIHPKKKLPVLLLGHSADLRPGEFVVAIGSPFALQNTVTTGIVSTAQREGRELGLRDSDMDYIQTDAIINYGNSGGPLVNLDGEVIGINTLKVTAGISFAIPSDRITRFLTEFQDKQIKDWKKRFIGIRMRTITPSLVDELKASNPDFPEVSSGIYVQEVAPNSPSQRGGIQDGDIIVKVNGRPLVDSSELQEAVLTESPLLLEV
test.protocol: Chromogenic enzyme activity assay, HTRA3
metric: HTRA3 inhibition, in words

CC(C)C[C@H]1C(=O)N(C)[C@@H](Cc2ccccc2)C(=O)N[C@@H](Cc2ccccc2)C(=O)O[C@H](C)[C@H](NC(=O)[C@H](C)NC(=O)[C@H](C)NC(=O)OCc2ccccc2)C(=O)N[C@@H](C(C)C)C(=O)N[C@H]2CC[C@@H](O)N1C2=O [Ahp8] : inhibited
CC(C)C[C@H]1C(=O)N(C)[C@@H](Cc2ccccc2)C(=O)N[C@@H](C(C)C)C(=O)O[C@H](C)[C@H](NC(=O)[C@H](C)NC(=O)[C@H](C)NC(=O)OCc2ccccc2)C(=O)N[C@@H](C(C)C)C(=O)N[C@H]2CC[C@@H](O)N1C2=O [Ahp1] : inhibited
